Sourced from paper PMC7122770

experimental.system: human estrogen receptor (Estrogen Receptor α) (Homo sapiens, UniProt P03372)
Sequence (P03372 whole entry): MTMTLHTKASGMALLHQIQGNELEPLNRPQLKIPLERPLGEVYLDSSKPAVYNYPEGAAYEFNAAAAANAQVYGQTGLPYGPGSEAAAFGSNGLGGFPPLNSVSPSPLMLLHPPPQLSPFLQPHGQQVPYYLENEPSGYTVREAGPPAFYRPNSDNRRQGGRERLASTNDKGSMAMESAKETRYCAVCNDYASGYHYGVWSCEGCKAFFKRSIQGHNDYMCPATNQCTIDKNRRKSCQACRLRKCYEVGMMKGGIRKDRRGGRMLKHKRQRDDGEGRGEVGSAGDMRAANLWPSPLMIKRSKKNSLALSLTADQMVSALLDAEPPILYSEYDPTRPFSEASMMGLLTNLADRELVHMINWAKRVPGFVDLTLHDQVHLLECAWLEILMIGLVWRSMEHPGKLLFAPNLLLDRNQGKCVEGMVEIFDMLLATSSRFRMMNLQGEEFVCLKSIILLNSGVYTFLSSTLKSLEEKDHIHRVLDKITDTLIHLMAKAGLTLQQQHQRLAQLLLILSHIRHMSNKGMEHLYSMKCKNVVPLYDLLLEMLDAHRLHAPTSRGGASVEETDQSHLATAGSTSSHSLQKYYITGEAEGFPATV
protocol.text: Analysis of detected pure substances in ER-CALUX
Type: cell-based
assay.context: pure substance in ER-CALUX
Counter-ions that a name gives are not always drawn.
readout.kind: Estrogen active [yes/no]

Reference set, count: 4
>>> df
                                   compound                       experimental_system  endpoint_result
0  CCOC(=O)c1ccccc1C(=O)OCC [Diethyl phthalate (DEP), Diethyl phthalate]  human estrogen receptor (Estrogen Receptor α) (Homo sapiens, UniProt P03372)              yes
1  CCCCOC(=O)CC(O)(CC(=O)OCCCC)C(=O)OCCCC [Tributyl citrate (TBC), Tributyl citrate]  human estrogen receptor (Estrogen Receptor α) (Homo sapiens, UniProt P03372)              yes
2  CC(C)CCCCCCOC(=O)C1CCCCC1C(=O)OCCCCCCC(C)C (centres unmarked) [Diisononyl cyclohexane-1,2-dicarboxylate]  human estrogen receptor (Estrogen Receptor α) (Homo sapiens, UniProt P03372)               no
3  CC(C)C(=O)OCC(C)(C)C(OC(=O)C(C)C)C(C)C (centres unmarked)  human estrogen receptor (Estrogen Receptor α) (Homo sapiens, UniProt P03372)               no

What value of measured Estrogen active [yes/no] is listed for CCCCCCCC/C=C\CCCCCCCCCCCC(N)=O [13-Docosenamide (Z)] ? no
